The entries below come with measured inhibition at 3.3 µM values attached.
# Tested on: EML4-ALK-BaF3 (Homo sapiens, UniProt Q9UM73)
# Construct: EML4 (echinoderm microtubule associated protein like 4, Q9HC35) fusion partner; expressed in transfected cells; host or cells: BaF3; the other entry of the earlier key: EML4 (Q9HC35, Echinoderm microtubule-associated protein-like 4)
# Sequence (Q9UM73 1058-1620 limits assumed): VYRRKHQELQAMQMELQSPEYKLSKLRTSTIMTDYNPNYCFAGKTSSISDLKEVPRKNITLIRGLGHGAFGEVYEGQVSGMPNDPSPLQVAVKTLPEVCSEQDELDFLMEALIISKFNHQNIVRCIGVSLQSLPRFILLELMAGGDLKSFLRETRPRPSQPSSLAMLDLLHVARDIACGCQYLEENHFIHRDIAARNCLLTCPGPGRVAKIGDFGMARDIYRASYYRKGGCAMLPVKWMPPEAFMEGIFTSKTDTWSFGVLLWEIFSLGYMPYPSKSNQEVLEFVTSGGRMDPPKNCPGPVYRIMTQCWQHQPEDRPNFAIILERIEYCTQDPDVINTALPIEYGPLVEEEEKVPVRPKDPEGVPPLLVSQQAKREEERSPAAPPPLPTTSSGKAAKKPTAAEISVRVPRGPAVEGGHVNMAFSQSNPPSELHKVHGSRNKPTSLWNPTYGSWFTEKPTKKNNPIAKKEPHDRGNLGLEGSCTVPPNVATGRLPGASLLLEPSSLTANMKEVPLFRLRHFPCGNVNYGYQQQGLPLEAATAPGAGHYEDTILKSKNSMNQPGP
# Assay name: Growth inhibition of BaF3 cells stably transfected with kinase EML4-ALK (MTS)
# Type: cell-based
# Condition set: compound concentration 3.3 μM, read-out: cell growth inhibition rate, EML4-ALK

{"columns": ["Structure notation", "inhibition at 3.3 µM"],
 "data": [
  ["COC(=O)c1ccccc1Sc1nc(Nc2cc(C)c(C3CCN(C)CC3)cc2OC)nc2ccsc12", "> 99%"],
  ["COc1cc(N2CCC(N3CCCC3)CC2)ccc1Nc1nc(Nc2cccc(NS(C)(=O)=O)c2)c2sccc2n1", "> 99%"],
  ["COc1cc(N2CCC(N3CCCC3)CC2)ccc1Nc1nc(Nc2ccccc2P(C)(C)=O)c2sccc2n1", "> 99%"]
]}

These measurements were taken from patent US11078213B2.
